Every entry's value here was drawn from paper PMC3306366.

Study Target: NTT1 (plastid / chloroplast ATP/ADP transporter 1) (Arabidopsis thaliana, UniProt Q39002, K156R)
Construct: gene AATP1; mature form lacking first 79 residues (transit peptide), N-terminal His-tag, C-terminal StreptagII; E. coli; purified in LAPAO; monomers and dimers
Sequence (Q39002 80-624 K156R): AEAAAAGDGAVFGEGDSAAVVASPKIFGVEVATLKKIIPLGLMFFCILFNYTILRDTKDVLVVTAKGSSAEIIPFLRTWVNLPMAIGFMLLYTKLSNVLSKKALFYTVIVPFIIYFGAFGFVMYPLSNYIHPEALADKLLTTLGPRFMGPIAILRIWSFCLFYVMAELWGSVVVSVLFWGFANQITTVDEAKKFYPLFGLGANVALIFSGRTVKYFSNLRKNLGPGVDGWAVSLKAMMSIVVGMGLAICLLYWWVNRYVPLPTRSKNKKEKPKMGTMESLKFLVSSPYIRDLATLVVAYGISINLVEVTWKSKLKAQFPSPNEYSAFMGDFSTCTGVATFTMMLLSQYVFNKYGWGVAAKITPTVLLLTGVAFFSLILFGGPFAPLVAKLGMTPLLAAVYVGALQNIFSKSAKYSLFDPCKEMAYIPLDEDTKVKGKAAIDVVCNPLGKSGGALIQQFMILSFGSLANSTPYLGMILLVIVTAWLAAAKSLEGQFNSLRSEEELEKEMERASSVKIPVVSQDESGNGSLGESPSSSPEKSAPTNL
Assay Remarks: tryptophan fluorescence variation
Type: binding
Conditions: read-out: Affinity for ATP
Measurement Type: pKd
Schema: pKd number; meaning minus log10 of the concentration expressed in molar units.

pKd recorded for this compound, `Nc1ncnc2c1ncn2[C@@H]1O[C@H](COP(=O)(O)OP(=O)(O)OP(=O)(O)O)[C@@H](O)[C@H]1O` , is 4.04
